All figures here come from paper PMC9090415.

TARGET OR TEST SYSTEM: P. falciparum apicoplast DNA polymerase (Pf-apPOL) (Plasmodium falciparum)
Sequence (Q8ILY1 entry or part of it): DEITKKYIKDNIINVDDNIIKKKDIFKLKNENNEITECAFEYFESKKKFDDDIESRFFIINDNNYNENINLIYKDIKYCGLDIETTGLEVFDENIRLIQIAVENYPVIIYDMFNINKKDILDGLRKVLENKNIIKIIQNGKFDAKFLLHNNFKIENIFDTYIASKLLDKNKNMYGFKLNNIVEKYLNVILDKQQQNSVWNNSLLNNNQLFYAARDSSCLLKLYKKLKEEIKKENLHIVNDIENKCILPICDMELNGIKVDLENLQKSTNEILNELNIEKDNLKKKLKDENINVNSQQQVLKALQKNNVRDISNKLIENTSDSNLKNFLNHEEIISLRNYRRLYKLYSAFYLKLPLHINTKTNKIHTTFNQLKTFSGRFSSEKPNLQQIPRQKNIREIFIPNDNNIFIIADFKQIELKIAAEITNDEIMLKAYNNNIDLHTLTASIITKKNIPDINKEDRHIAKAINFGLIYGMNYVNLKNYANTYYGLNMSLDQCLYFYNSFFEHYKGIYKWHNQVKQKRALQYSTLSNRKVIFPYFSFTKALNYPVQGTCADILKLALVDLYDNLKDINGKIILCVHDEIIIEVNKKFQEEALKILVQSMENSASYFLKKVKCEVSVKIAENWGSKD
PROTOCOL NOTES: Fluorescence-based high-throughput DNA polymerase assay (molecular beacon), primary screen and dose-response
Format: biochemical
CONDITIONS USED: DRC-1; 10'; concentration 10
Would you please tag the item Y when its % inhibition Apo pol 10' is 50% or above, and N when it is below?

Reference set, count: 5
COMPOUND	CATEGORY LABEL
O=C(Nc1nnc(-c2cccs2)o1)c1ccc([N+](=O)[O-])o1 [Molecule 74]	N
Cc1cccc(-c2nnc3ccc(NS(=O)(=O)c4ccc(C)c(C)c4)nn23)c1 [Molecule 40]	Y
CCCCCCCCCCCC1SCC(C(=O)O)N1C(C)=O (centres unmarked) [Molecule 72]	N
CSC(C)C(=O)C=CN(C)C (centres unmarked) [Molecule 71, CSC(C(=O)C=CN(C)C)C]	N
CC(=O)c1cc2c(N)c(/C(N)=N/C#N)sc2nc1C [KU0015866]	N

Check if % inhibition Apo pol 10' >= 50% (inclusive). Item: CC1(C)CC(=O)C2=C(C1)OC1=C(C(=O)CC(C)(C)C1)C2c1ccc(O)cc1 [KU0194226]
N

Tell me whether % inhibition Apo pol 10' is at least 50% here: COc1cc(NC(=O)c2ccccc2)c(OC)cc1NC(=O)Cc1cccs1 [KU0032113]
N

Please tell me: is the compound Cc1cc(C)c2c(O)nc(SCC(=O)c3ccc(O)c(O)c3)nc2n1 [Molecule 88] at or over 50% in terms of % inhibition Apo pol 10'?
Y

# bool: % inhibition Apo pol 10' of O=c1cc(-c2ccccc2)oc2c(O)c(O)ccc12 [Molecule 84, Oc1ccc2c(c1O)oc(cc2=O)c1ccccc1] >= 50%
N

In plain terms: is recorded % inhibition Apo pol 10' at least 50% for COc1cccc(C(=O)N2CCc3c(nc4cc(-c5ccccc5)[nH]n4c3=O)C2)c1OC [Molecule 22] ?
Y

Does % inhibition Apo pol 10' meet or surpass 50% for O=C(Nc1nnc(-c2ccno2)o1)c1ccc2c(c1)OCO2 [KU0171343] ?
N

// inclusive: % inhibition Apo pol 10' at least 50%? input: O=C(O)c1ccc(-c2nc3cc(-c4ccc5nc(-c6ccc(C(=O)O)cc6)[nH]c5c4)ccc3[nH]2)cc1 [Molecule 1]
Y

# bool: % inhibition Apo pol 10' of Cc1ccc(C(=O)/C=C/C=C/C=C/N(C)C)o1 [Molecule 96, CN(/C=C/C=C/C=C/C(=O)c1ccc(o1)C)C] >= 50%
Y

Does % inhibition Apo pol 10' meet or surpass 50% for COc1ccc(NC(=O)Cn2ccc3c(=O)[nH]ccc32)cc1Cl [Molecule 10, COc1ccc(cc1Cl)NC(=O)Cn1ccc2c1cc[nH]c2=O] ?
Y

Is reported % inhibition Apo pol 10' greater than or equal to 50% here: CN(C)C1C(c2ccccc2)=C(c2ccccc2)SC(c2ccccc2)C1[N+](=O)[O-] (centres unmarked) [KU0268387]
N

Decide: is the reported value of % inhibition Apo pol 10' for CCCCCCCCCCCCCCCCCC(=O)CCN(C)C [KU0271928] equal to or greater than 50%?
N
